- System Under Test: Dihydrofolate reductase (Mus musculus)
- Assay Details: Compound was tested for its inhibitory concentration to inhibit the enzyme Dihydro Folate Reductase ( DHFR ) from murine L1210 leukemia cells.
- Type: cell-based
Experimental Endpoint: pIC50
Note: pIC50 values are expressed as the negative base-10 logarithm of concentration in M.

Asked: # lookup: pIC50 of CN(Cc1cnc2nc(N)nc(N)c2n1)c1ccc(C(=O)NC(CCC(=O)Nc2ccc(O)c(O)c2)C(=O)O)cc1 (configuration not stated)
Given back: 7.51

Asked: # lookup: pIC50 of Nc1nc(N)c2nc(CNc3ccc(C(=O)NC(CCC(=O)Nc4ccc(O)c(O)c4)C(=O)O)cc3)cnc2n1 (configuration not stated)
Given back: 7.24

* * *

- System: Mus musculus
- Assay Details: Increase in life span of mice with L1210 leukemia cells at a dose of 80 mg/kg
- Format: functional
Experimental Endpoint: ILS at 80 mg/kg (%)
Answer with a number only, understood to be in %.

- Compound: "Nc1nc(N)c2nc(CNc3ccc(C(=O)NC(CCC(=O)N[C@]45C[C@H]6C[C@H](C[C@H](C6)C4)C5)C(=O)O)cc3)cnc2n1 (some centres undefined)"
  ILS at 80 mg/kg, %: 22

Asked: Checklist item: ILS at 80 mg/kg tested on Mus musculus, entry Nc1nc(N)c2nc(CNc3ccc(C(=O)NC(CCC(=O)NCc4ccc(Cl)c(Cl)c4)C(=O)O)cc3)cnc2n1 (centres undefined) , value?
Given back: 50

Asked: Checklist item: ILS at 80 mg/kg tested on Mus musculus, entry CC(C)(C)NC(=O)CCC(NC(=O)c1ccc(NCc2cnc3nc(N)nc(N)c3n2)cc1)C(=O)O (centres undefined) , value?
Given back: 22

Asked: Checklist item: ILS at 80 mg/kg tested on Mus musculus, entry Nc1nc(N)c2nc(CNc3ccc(C(=O)NC(CCC(=O)NCc4c(Cl)cccc4Cl)C(=O)O)cc3)cnc2n1 (centres undefined) , value?
Given back: 44

* * *

Quick reference for IC50 among some compounds
- System Under Test: Dihydrofolate reductase (Mus musculus, UniProt P00375)
- Assay Details: biochemical
- Description: Compound was tested for its inhibitory concentration to inhibit the enzyme Dihydro Folate Reductase (DHFR) from murine L1210 leukemia cells.

Look over these answered cases.
- Compound: "Nc1nc(N)c2nc(CNc3ccc(C(=O)NC(CCC(=O)NCc4c(Cl)cccc4Cl)C(=O)O)cc3)cnc2n1 (centres undefined)"
  Recorded Value: "80 nM"
- Compound: "Nc1nc(N)c2nc(CNc3ccc(C(=O)NC(CCC(=O)NCc4ccccc4)C(=O)O)cc3)cnc2n1 (centres undefined)"
  Recorded Value: "87 nM"
- Compound: "CN(Cc1cnc2nc(N)nc(N)c2n1)c1ccc(C(=O)NC(CCC(=O)Nc2ccc3c(c2)OCO3)C(=O)O)cc1 (centres undefined)"
  Recorded Value: "42 nM"
- Compound: "Nc1nc(N)c2nc(CNc3ccc(C(=O)NC(CCC(=O)N[C@]45C[C@H]6C[C@H](C[C@H](C6)C4)C5)C(=O)O)cc3)cnc2n1 (some centres undefined)"
  Recorded Value: "100 nM"
- Compound: "Nc1nc(N)c2nc(CNc3ccc(C(=O)N[C@@H](CCC(=O)O)C(=O)O)cc3)cnc2n1"
  Recorded Value: "20 nM"
- Compound: "Nc1nc(N)c2nc(CNc3ccc(C(=O)NC(CCC(=O)NCc4ccc(Cl)c(Cl)c4)C(=O)O)cc3)cnc2n1 (centres undefined)"
  Recorded Value: "130 nM"
- Compound: "Nc1nc(N)c2nc(CNc3ccc(C(=O)NC(CCC(=O)Nc4ccccc4)C(=O)O)cc3)cnc2n1 (centres undefined)"
  Recorded Value: "60 nM"
- Compound: "CC(C)(C)NC(=O)CCC(NC(=O)c1ccc(NCc2cnc3nc(N)nc(N)c3n2)cc1)C(=O)O (centres undefined)"
  Recorded Value: "44 nM"

Continue with the compound presented below.
Asked: # lookup: IC50 of Nc1nc(N)c2nc(CNc3ccc(C(=O)NC(CCC(=O)Nc4ccc5c(c4)OCO5)C(=O)O)cc3)cnc2n1 (centres undefined)
Given back: 45 nM

* * *

- Test system: L1210
- Assay Details: Compound was tested for its inhibitory concentration to inhibit the growth of wild type L1210 cells and a subline (L1210 / R81); Mean of two assays
- Assay type: functional, cell-based
- Reported Conditions: Mus musculus
Experimental Endpoint: IC50 (µM)
Answer with a number only, understood to be in µM.

Asked: # lookup: IC50 of CC(C)(C)NC(=O)CCC(NC(=O)c1ccc(NCc2cnc3nc(N)nc(N)c3n2)cc1)C(=O)O (stereo unspecified)
Given back: 22

* * *

- Tested on: L1210
- Assay Details: Compound was tested for its inhibitory concentration to inhibit the growth of wild type L1210 cells.
- Type: functional, cell-based, Mus musculus
- Reported Conditions: l1210
Quick reference for pIC50 among some molecules
Note: pIC50 values are expressed as the negative base-10 logarithm of concentration in M.

Look over these answered cases.
- Molecule: "Nc1nc(N)c2nc(CNc3ccc(C(=O)NC(CCC(=O)N[C@]45C[C@H]6C[C@H](C[C@H](C6)C4)C5)C(=O)O)cc3)cnc2n1 (stereo not given in full)"
  pIC50: 6.29
- Molecule: "Nc1nc(N)c2nc(CNc3ccc(C(=O)NC(CCC(=O)NCc4c(Cl)cccc4Cl)C(=O)O)cc3)cnc2n1 (stereo not given)"
  pIC50: 8.70
- Molecule: "Nc1nc(N)c2nc(CNc3ccc(C(=O)NC(CCC(=O)NCc4ccccc4)C(=O)O)cc3)cnc2n1 (stereo not given)"
  pIC50: 8.15
- Molecule: "Nc1nc(N)c2nc(CNc3ccc(C(=O)NC(CCC(=O)NCc4ccc(Cl)c(Cl)c4)C(=O)O)cc3)cnc2n1 (stereo not given)"
  pIC50: 7.47

Continue with the molecule presented below.
Asked: # lookup: pIC50 of Nc1nc(N)c2nc(CNc3ccc(C(=O)NC(CCC(=O)Nc4ccccc4)C(=O)O)cc3)cnc2n1 (stereo not given)
Given back: 8.44

* * *

- System: L1210
- Assay Details: Compound was tested for its inhibitory concentration to inhibit the growth of wild type L1210 cells.
- Format: functional, cell-based, Mus musculus
- Reported Conditions: Mus musculus, L1210
Experimental Endpoint: pIC50
Note: pIC50 values are expressed as the negative base-10 logarithm of concentration in M.

- Molecule: "Nc1nc(N)c2nc(CNc3ccc(C(=O)NC(CCC(=O)Nc4ccccc4)C(=O)O)cc3)cnc2n1 (stereo not given)"
  pIC50: 8.46
- Molecule: "Nc1nc(N)c2nc(CNc3ccc(C(=O)NC(CCC(=O)NCc4c(Cl)cccc4Cl)C(=O)O)cc3)cnc2n1 (stereo not given)"
  pIC50: 8.43
- Molecule: "Nc1nc(N)c2nc(CNc3ccc(C(=O)NC(CCC(=O)Nc4ccc5c(c4)OCO5)C(=O)O)cc3)cnc2n1 (stereo not given)"
  pIC50: 8.49

Asked: # lookup: pIC50 of CC(C)(C)NC(=O)CCC(NC(=O)c1ccc(NCc2cnc3nc(N)nc(N)c3n2)cc1)C(=O)O (stereo not given)
Given back: 6.92

Asked: # lookup: pIC50 of Nc1nc(N)c2nc(CNc3ccc(C(=O)NC(CCC(=O)N[C@]45C[C@H]6C[C@H](C[C@H](C6)C4)C5)C(=O)O)cc3)cnc2n1 (stereo not given in full)
Given back: 6.17

* * *

- System Under Test: Dihydrofolate reductase (Mus musculus)
- Sequence (whole entry): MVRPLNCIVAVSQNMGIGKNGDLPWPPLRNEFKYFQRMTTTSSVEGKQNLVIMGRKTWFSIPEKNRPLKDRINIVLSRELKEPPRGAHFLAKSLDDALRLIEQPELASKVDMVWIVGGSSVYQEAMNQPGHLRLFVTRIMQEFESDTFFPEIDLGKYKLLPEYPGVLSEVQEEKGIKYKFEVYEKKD
- Reported Conditions: L1210
- Description: Compound was tested for inhibition of the enzyme DiHydroFolate Reductase (DHFR) from murine L1210 leukemia cells
Experimental Endpoint: IC50/[E]

Look over these answered cases.
- Compound: "Nc1nc(N)c2nc(CNc3ccc(C(=O)NC(CCC(=O)NCc4ccccc4)C(=O)O)cc3)cnc2n1 (stereo not given)"
  Experimental Endpoint: "IC50/[E]"
  Recorded Value: 2.2
- Compound: "Nc1nc(N)c2nc(CNc3ccc(C(=O)NC(CCC(=O)N[C@]45C[C@H]6C[C@H](C[C@H](C6)C4)C5)C(=O)O)cc3)cnc2n1 (stereo not given in full)"
  Experimental Endpoint: "IC50/[E]"
  Recorded Value: 2.5
- Compound: "Nc1nc(N)c2nc(CNc3ccc(C(=O)NC(CCC(=O)NCc4c(Cl)cccc4Cl)C(=O)O)cc3)cnc2n1 (stereo not given)"
  Experimental Endpoint: "IC50/[E]"
  Recorded Value: 2
- Compound: "Nc1nc(N)c2nc(CNc3ccc(C(=O)NC(CCC(=O)NCc4ccc(Cl)c(Cl)c4)C(=O)O)cc3)cnc2n1 (stereo not given)"
  Experimental Endpoint: "IC50/[E]"
  Recorded Value: 3.3

Continue with the compound presented below.
Asked: Checklist item: IC50/[E] tested on Dihydrofolate reductase (Mus musculus), entry `Nc1nc(N)c2nc(CNc3ccc(C(=O)N[C@@H](CCC(=O)O)C(=O)O)cc3)cnc2n1` , value?
Given back: 0.5
